The reported numbers originate from paper PMC7835950.

# Experimental target: OGDH (Rattus norvegicus)
# Construct: the tissue fractions with the complexes enriched to a degree allowing for a robust detection of the enzymatic activities, have been used; from tissue; host or cells: rat liver
# Experiment description: OADH reaction catalyzed by the enzyme preparation from rat liver, high [OA] (low-affinity OA sites)
# Type: biochemical
# Assay context: high [OA], Eadie-Hofstee, read-out: Ki, EH
# Method: Enzymes catalyzing OGDH and OADH reactions were enriched from rat hearts and livers using polyethylene glycol precipitation, as previously described (Artiukhov et al., [2020]). […] Reaction rates were calculated from linear parts of the product accumulation curves (up to 10 min, dependent on the reaction rate), excluding the initial region, where mixing the reagents and solubilization of the preparation affected the optical density. […]

# Compound, Ki
data = [
    ("O=C(O)CCC(=O)P(=O)(O)O [SP, succinyl phosphonate]", "2500 nM"),
    ("O=C(O)CCCCC(=O)P(=O)(O)O [AP, adipoyl phosphonate]", "47000 nM"),
    ("O=C(O)CCCC(=O)P(=O)(O)O [GP, glutaryl phosphonate]", "1300 nM"),
]

====

# Experimental target: OGDH (Rattus norvegicus)
# Construct: the tissue fractions with the complexes enriched to a degree allowing for a robust detection of the enzymatic activities, have been used; from tissue; host or cells: rat liver
# Sequence (Q5XI78 41-1023): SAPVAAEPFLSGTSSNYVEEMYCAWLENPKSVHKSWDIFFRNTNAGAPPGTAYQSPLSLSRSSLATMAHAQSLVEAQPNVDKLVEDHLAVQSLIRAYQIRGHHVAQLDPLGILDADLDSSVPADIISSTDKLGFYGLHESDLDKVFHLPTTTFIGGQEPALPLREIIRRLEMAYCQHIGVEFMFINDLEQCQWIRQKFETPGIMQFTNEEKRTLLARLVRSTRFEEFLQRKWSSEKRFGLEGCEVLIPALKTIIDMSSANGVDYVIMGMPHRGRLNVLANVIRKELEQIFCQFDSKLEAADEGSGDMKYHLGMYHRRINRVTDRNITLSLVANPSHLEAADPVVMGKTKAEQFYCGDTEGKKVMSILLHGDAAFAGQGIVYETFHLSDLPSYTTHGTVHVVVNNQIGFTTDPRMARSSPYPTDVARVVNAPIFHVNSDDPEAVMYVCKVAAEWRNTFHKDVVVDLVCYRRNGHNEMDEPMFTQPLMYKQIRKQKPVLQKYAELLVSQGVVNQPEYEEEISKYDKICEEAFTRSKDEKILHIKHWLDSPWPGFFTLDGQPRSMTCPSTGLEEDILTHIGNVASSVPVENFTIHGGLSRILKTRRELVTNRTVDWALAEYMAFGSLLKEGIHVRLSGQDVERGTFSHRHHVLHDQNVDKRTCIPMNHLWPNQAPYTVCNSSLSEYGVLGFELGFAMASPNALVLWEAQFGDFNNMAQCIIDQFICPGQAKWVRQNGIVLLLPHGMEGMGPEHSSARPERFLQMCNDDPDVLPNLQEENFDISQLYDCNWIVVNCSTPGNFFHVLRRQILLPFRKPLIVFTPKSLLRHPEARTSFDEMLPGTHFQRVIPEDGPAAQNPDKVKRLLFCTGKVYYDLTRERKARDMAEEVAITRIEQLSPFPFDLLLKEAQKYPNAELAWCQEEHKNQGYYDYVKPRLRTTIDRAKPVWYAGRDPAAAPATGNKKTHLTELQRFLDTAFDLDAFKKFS
# Experiment description: OADH reaction catalyzed by the enzyme preparation from rat liver, high [OA] (low-affinity OA sites)
# Type: biochemical
# Assay context: high [OA], Lineweaver-Burk, read-out: Ki, LB
Listed below: Ki values for each entry.

# Molecule, Ki [nM]
measured = [
    ("O=C(O)CCCCC(=O)P(=O)(O)O [AP, adipoyl phosphonate]", 46000),
    ("O=C(O)CCCC(=O)P(=O)(O)O [GP, glutaryl phosphonate]", 1300),
    ("O=C(O)CCC(=O)P(=O)(O)O [SP, succinyl phosphonate]", 2100),
]

====

# Experimental target: OGDH (Rattus norvegicus)
# Experiment description: OADH reaction (OA saturation) catalyzed by the enzyme preparation from rat heart
# Format: biochemical
# Design: the tissue fractions with the complexes enriched to a degree allowing for a robust detection of the enzymatic activities, have been used; from tissue; host or cells: rat heart
# Assay context: OADH reaction, heart; Lineweaver-Burk; read-out: Ki, LB
pKi: −log10 of the molar value.
Listed below: pKi values for each entry.
Observation type: pKi

# Compound, Quantitative readout
data = [
    ("O=C(O)CCCCC(=O)P(=O)(O)O [AP, adipoyl phosphonate]", 4.24),
    ("O=C(O)CCCC(=O)P(=O)(O)O [GP, glutaryl phosphonate]", 5.96),
    ("O=C(O)CCC(=O)P(=O)(O)O [SP, succinyl phosphonate]", 5.33),
]

====

# Experimental target: UniProt Q5XI78
# Sequence (Q5XI78 41-1023): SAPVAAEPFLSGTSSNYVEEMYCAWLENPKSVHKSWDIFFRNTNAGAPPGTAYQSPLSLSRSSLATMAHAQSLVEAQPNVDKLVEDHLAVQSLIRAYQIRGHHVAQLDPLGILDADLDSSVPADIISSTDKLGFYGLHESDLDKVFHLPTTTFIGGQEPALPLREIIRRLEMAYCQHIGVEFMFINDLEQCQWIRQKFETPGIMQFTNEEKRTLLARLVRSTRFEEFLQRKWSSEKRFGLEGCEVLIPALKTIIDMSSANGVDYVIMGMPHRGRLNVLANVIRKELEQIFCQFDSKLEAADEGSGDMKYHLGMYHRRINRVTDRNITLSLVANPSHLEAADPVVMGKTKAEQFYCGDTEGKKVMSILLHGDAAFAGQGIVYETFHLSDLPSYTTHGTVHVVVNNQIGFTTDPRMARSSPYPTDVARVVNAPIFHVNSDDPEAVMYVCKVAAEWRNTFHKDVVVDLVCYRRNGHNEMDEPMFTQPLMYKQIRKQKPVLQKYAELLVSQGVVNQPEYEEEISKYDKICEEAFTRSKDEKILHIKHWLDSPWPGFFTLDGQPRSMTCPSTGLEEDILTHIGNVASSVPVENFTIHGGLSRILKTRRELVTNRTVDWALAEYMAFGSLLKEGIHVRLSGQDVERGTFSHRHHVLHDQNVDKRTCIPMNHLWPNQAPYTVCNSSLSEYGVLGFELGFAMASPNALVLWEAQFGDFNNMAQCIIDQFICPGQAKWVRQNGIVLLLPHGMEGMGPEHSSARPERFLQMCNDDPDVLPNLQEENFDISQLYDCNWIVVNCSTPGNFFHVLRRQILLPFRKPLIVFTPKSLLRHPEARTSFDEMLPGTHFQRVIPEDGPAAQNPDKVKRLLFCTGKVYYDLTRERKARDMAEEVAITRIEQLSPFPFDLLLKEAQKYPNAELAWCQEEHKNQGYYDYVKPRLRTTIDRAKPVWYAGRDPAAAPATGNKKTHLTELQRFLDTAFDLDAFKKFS
# Sequence (Q01205 69-454 partner): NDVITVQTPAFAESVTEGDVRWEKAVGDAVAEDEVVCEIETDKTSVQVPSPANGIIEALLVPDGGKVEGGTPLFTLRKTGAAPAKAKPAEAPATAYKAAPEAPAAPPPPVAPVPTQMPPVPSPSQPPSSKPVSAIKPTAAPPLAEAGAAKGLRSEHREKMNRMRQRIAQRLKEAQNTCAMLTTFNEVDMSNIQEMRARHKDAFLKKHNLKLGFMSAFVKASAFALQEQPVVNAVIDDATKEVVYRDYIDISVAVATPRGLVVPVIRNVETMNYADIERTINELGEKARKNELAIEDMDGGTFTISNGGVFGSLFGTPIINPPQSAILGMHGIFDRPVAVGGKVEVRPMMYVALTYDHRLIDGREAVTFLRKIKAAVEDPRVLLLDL
# Sequence (Q6P6R2 36-509 partner): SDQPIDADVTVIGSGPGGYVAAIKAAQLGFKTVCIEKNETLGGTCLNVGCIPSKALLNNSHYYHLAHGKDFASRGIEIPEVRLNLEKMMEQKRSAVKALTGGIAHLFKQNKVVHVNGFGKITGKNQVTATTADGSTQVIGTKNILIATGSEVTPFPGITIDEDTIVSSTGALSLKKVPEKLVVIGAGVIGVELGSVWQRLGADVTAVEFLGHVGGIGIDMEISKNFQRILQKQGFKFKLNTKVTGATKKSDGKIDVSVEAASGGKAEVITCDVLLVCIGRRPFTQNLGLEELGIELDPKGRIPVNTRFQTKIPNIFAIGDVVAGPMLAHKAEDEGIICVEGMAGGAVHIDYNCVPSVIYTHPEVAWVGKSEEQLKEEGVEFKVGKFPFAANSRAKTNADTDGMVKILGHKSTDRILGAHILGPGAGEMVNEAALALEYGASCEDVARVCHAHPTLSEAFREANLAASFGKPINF
# Experiment description: OADH reaction (OA saturation) catalyzed by the enzyme preparation from rat heart
# Format: biochemical
# Parameters: the tissue fractions with the complexes enriched to a degree allowing for a robust detection of the enzymatic activities, have been used; from tissue; host or cells: rat heart
# Assay context: OADH reaction, heart; Eadie-Hofstee; read-out: Ki, EH

# Compound, Unit label, Ki
data = [
    ("O=C(O)CCCC(=O)P(=O)(O)O [GP, glutaryl phosphonate]", "µM", 3.4),
    ("O=C(O)CCC(=O)P(=O)(O)O [SP, succinyl phosphonate]", "µM", 6.3),
    ("O=C(O)CCCCC(=O)P(=O)(O)O [AP, adipoyl phosphonate]", "µM", 40),
]
